tested on: SK-LMS-1; test: relative viability vs DMSO control (72 h) (fraction); higher = more viable cells; details: 0.04115 µM
Listed below: relative viability values for each entry.
Assay readout: relative viability

1. COc1cc(OC)c(/C=C/S(=O)(=O)Cc2ccc(OC)c(NCC(=O)O)c2)c(OC)c1 | 0.912
2. O=C(Nc1ccc(OC(F)(F)Cl)cc1)c1cnc(N2CC[C@@H](O)C2)c(-c2cc[nH]n2)c1 | 1.02
3. CCC(=O)N1CC[C@H](Nc2ncnc3c2CN(c2cnc(OC)c(C(F)(F)F)c2)CC3)C1 | 1.04
4. CCc1cnn2c(NCc3ccc[n+]([O-])c3)cc(N3CCCC[C@H]3CCO)nc12 | 0.325
5. N#CCNC(=O)c1ccc(-c2ccnc(Nc3ccc(N4CCOCC4)cc3)n2)cc1 | 1.06
6. CCN(CC)CCNC(=O)c1c(C)[nH]c(/C=C2\C(=O)Nc3ccc(F)cc32)c1C | 1.1
7. COC(=O)N[C@@H](C)CNc1nccc(-c2cn(C(C)C)nc2-c2cc(Cl)cc(NS(C)(=O)=O)c2F)n1 | 0.933
8. COc1cc(Nc2ncc(F)c(Nc3ccc4c(n3)N(COP(=O)(O)O)C(=O)C(C)(C)O4)n2)cc(OC)c1OC | 1.03
9. N#CC1(c2ccc(NC(=O)c3cccnc3NCc3ccncc3)cc2)CCCC1 | 1.08
